Values from patent US12702660B2

- Assay method text: Plasma PK of H3B-6545 capsules in fasted patients, phase 1 dose escalation
- Format: in vivo, human
- Condition parameters: female, human, plasma, oral, 300 mg, Cycle 1 Day 15; 300 mg QD capsules, fasted patients; Geometric Mean (GeoCV %); read-out: AUC0-24
Metric: AUC(0-t) (ng·h/mL)
Give just the numeric value; ng·h/mL need not be written.

I'd like to know its AUC(0-t). The compound in question is CN(C)C(=O)/C=C/CNCCOc1ccc(/C(=C(/CC(F)(F)F)c2ccccc2)c2ccc3[nH]nc(F)c3c2)cn1 [H3B-6545]
12000

* * *

- Assay method text: Plasma PK of H3B-6545 capsules in fasted patients, phase 1 dose escalation
- Assay type: in vivo, human
- Condition parameters: female, human, plasma, oral, 200 mg, Cycle 1 Day 1; 200 mg QD capsules, fasted patients; Median (Min, Max)
Metric: Tmax

// Tmax lookup, key: "CN(C)C(=O)/C=C/CNCCOc1ccc(/C(=C(/CC(F)(F)F)c2ccccc2)c2ccc3[nH]nc(F)c3c2)cn1"
5 h

* * *

- Assay method text: Plasma PK of H3B-6545 capsules in fasted patients, phase 1 dose escalation
- Assay type: in vivo, human
- Condition parameters: female, human, plasma, oral, as of 10 Dec. 2018; 100 to 450 mg/day capsules
Metric: Tmax

# lookup: Tmax of "CN(C)C(=O)/C=C/CNCCOc1ccc(/C(=C(/CC(F)(F)F)c2ccccc2)c2ccc3[nH]nc(F)c3c2)cn1"
2 to 4 h

* * *

- Assay method text: Plasma PK of H3B-6545 capsules in fasted patients, phase 1 dose escalation
- Type: in vivo, human
- Condition parameters: female, human, plasma, oral, 200 mg, Cycle 1 Day 15; 200 mg QD capsules, fasted patients; Geometric Mean (GeoCV %)
Metric: AUC(0-inf) (ng·h/mL)
A number alone suffices; assume ng·h/mL.

Fill in: AUC(0-inf) of "CN(C)C(=O)/C=C/CNCCOc1ccc(/C(=C(/CC(F)(F)F)c2ccccc2)c2ccc3[nH]nc(F)c3c2)cn1" is ___
7950

* * *

- Assay method text: Plasma PK of H3B-6545 capsules in fasted patients, phase 1 dose escalation
- Assay type: in vivo, human
- Condition parameters: female, human, plasma, oral, 200 mg, Cycle 1 Day 1; 200 mg QD capsules, fasted patients; Geometric Mean (GeoCV %); read-out: AUC0-24
Metric: AUC(0-t) (ng·h/mL)
// note: answer is a bare numeric in ng·h/mL

# AUC(0-t) lookup, item "CN(C)C(=O)/C=C/CNCCOc1ccc(/C(=C(/CC(F)(F)F)c2ccccc2)c2ccc3[nH]nc(F)c3c2)cn1"
4760

* * *

- Assay method text: Plasma PK of H3B-6545 capsules in fasted patients, phase 1 dose escalation
- Type: in vivo, human
- Condition parameters: female, human, plasma, oral, 100 mg, Cycle 1 Day 1; 100 mg QD capsules, fasted patients; Geometric Mean (GeoCV %); read-out: AUC0-t
Metric: AUC(0-t) (ng·h/mL)
Respond numerically; units are ng·h/mL and should not be typed.

Which AUC(0-t) is listed for CN(C)C(=O)/C=C/CNCCOc1ccc(/C(=C(/CC(F)(F)F)c2ccccc2)c2ccc3[nH]nc(F)c3c2)cn1 [H3B-6545] ?
1680

* * *

- Assay method text: Plasma PK of H3B-6545 capsules in fasted patients, phase 1 dose escalation
- Type: in vivo, human
- Condition parameters: female, human, plasma, oral, 600 mg, Cycle 1 Day 1; 600 mg QD capsules, fasted patients; Geometric Mean (GeoCV %)
Metric: Cmax (ng/mL)
Provide only the numeric value, understood in ng/mL.

Quick one: Cmax of CN(C)C(=O)/C=C/CNCCOc1ccc(/C(=C(/CC(F)(F)F)c2ccccc2)c2ccc3[nH]nc(F)c3c2)cn1 [H3B-6545] ?
2050

* * *

- Assay method text: Plasma PK of H3B-6545 capsules in fasted patients, phase 1 dose escalation
- Type: in vivo, human
- Condition parameters: female, human, plasma, oral, 300 mg, Cycle 1 Day 15; 300 mg QD capsules, fasted patients; Median (Min, Max)
Metric: Tmax (h)
Give a bare numeral; the unit h is implied.

For the molecule shown here, "CN(C)C(=O)/C=C/CNCCOc1ccc(/C(=C(/CC(F)(F)F)c2ccccc2)c2ccc3[nH]nc(F)c3c2)cn1" , give the reported Tmax.
4

* * *

- Assay method text: Plasma PK of H3B-6545 capsules in fasted patients, phase 1 dose escalation
- Type: in vivo, human
- Condition parameters: female, human, plasma, oral, 600 mg, Cycle 1 Day 15; 600 mg QD capsules, fasted patients; Geometric Mean (GeoCV %); read-out: AUC0-t
Metric: AUC(0-t) (ng·h/mL)
Report the figure in ng·h/mL without appending any unit label.

If you can, please state the reported AUC(0-t) value of "CN(C)C(=O)/C=C/CNCCOc1ccc(/C(=C(/CC(F)(F)F)c2ccccc2)c2ccc3[nH]nc(F)c3c2)cn1" .
18700

* * *

- Assay method text: Plasma PK of H3B-6545 capsules in fasted patients, phase 1 dose escalation
- Format: in vivo, human
- Condition parameters: female, human, plasma, oral, 450 mg, Cycle 1 Day 15; 450 mg QD capsules, fasted patients; Median (Min, Max)
Metric: Tmax
Please provide the amount together with its unit, number first.

Need Tmax of CN(C)C(=O)/C=C/CNCCOc1ccc(/C(=C(/CC(F)(F)F)c2ccccc2)c2ccc3[nH]nc(F)c3c2)cn1 [H3B-6545] , thanks.
4 h

* * *

- Assay method text: Plasma PK of 450 mg capsules in fasted and fed patients, dose expansion
- Assay type: in vivo, human
- Condition parameters: human, plasma, oral, 450 mg, 450 mg QD capsules, Dose Expansion-Fasted; Geometric Mean (GeoCV %); read-out: Vz/F
Metric: Vd/F (L)
Number only, in L; omit the unit.

Would you mind telling me what Vd/F value was observed for "CN(C)C(=O)/C=C/CNCCOc1ccc(/C(=C(/CC(F)(F)F)c2ccccc2)c2ccc3[nH]nc(F)c3c2)cn1" ?
566

* * *

- Assay method text: Plasma PK of H3B-6545 capsules in fasted patients, phase 1 dose escalation
- Assay type: in vivo, human
- Condition parameters: female, human, plasma, oral, 450 mg, Cycle 1 Day 1; 450 mg QD capsules, fasted patients; Geometric Mean (GeoCV %); read-out: Vz/F
Metric: Vd/F (L)
Supply the numeric figure in L, leaving out any unit text.

Look at this compound and give its reported Vd/F. "CN(C)C(=O)/C=C/CNCCOc1ccc(/C(=C(/CC(F)(F)F)c2ccccc2)c2ccc3[nH]nc(F)c3c2)cn1"
311

* * *

- Assay method text: Plasma PK of H3B-6545 capsules in fasted patients, phase 1 dose escalation
- Assay type: in vivo, human
- Condition parameters: female, human, plasma, oral, 600 mg, Cycle 1 Day 15; 600 mg QD capsules, fasted patients; Geometric Mean (GeoCV %); read-out: AUC0-24
Metric: AUC(0-t)
# do not omit the unit; it follows the number

# query: AUC(0-t) of entry "CN(C)C(=O)/C=C/CNCCOc1ccc(/C(=C(/CC(F)(F)F)c2ccccc2)c2ccc3[nH]nc(F)c3c2)cn1"
18400 ng·h/mL

* * *

- Assay method text: Plasma PK of H3B-6545 capsules in fasted patients, phase 1 dose escalation
- Assay type: in vivo, human
- Condition parameters: female, human, plasma, oral, 300 mg, Cycle 1 Day 15; 300 mg QD capsules, fasted patients; Geometric Mean (GeoCV %)
Metric: half-life

Given the compound CN(C)C(=O)/C=C/CNCCOc1ccc(/C(=C(/CC(F)(F)F)c2ccccc2)c2ccc3[nH]nc(F)c3c2)cn1 [H3B-6545] , what is its reported half-life?
8.52 h
